This listing pairs compounds with measured pIC50.
target: Factor D (Homo sapiens (Human), UniProt P00746); experiment: biochemical; assay type: biochemical; settings: read-out: IC50
Sequence (P00746 26-253): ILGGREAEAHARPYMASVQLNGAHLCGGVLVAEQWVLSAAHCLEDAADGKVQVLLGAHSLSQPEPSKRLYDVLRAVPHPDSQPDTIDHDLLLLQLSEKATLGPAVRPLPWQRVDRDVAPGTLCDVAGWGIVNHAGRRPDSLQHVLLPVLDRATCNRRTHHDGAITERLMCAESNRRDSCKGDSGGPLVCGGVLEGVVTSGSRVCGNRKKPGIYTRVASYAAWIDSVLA
Entry type: numeric. Quantity: pIC50, the -log10 of concentration in molar units.

Please review the entries below; each comes with its answer.
>>> df
                                   compound  testvalue
0  O=C(CO)c1cn(CC(=O)N2C[C@H](F)C[C@H]2C(=O)N[C@H](CF)c2cccc(Br)c2)c2ccccc12 [Example 551]       6.05
1  NC(=O)n1cc(NC(=O)N2C[C@H](F)C[C@H]2C(=O)NCc2cncc(Cl)c2)c2ccccc21 [Example 237]       7.15
2  NC(=O)n1cc(NC(=O)N2CCC[C@H]2C(=O)Nc2cccc(OC(F)(F)F)c2)c2ccc(O)cc21 [Example 369]       6.07

### Prompt Quick one: pIC50 for CCc1cccc(NC(=O)[C@@H]2C[C@@H](F)CN2C(=O)Nc2cn(C(N)=O)c3ccccc23)n1 [Example 163] ?
### Response 7.00
